Hey, just so you know, these numbers are from patent US11261211B2.

SYSTEM UNDER TEST: α1β2γ2 GABAA receptor (Homo sapiens (Human), UniProt P14867+P47870)
RUN DESCRIPTION: Patch clamp electrophysiology of recombinant α1β2γ2 GABAA receptors in LTK cells
Assay type: cell-based
CONDITIONS: LTK, 10 μM compound, Qpatch, Ltk cells, GABA EC20 2 μM; read-out: α1β2γ2 GABA Qpatch in Ltk (Efficacy at 10 μm)
Measured activity at 10 µM by item

Take a look at these entries with their results.
> print(dat)
                              smiles.string  value.observed
1  C[C@]12CC[C@H]3[C@@H](CC[C@@H]4C[C@@](O)(CF)CC[C@@H]43)[C@@H]1CC[C@@H]2C(=O)Cn1nc2ccccc2n1          > 500%
2  C[C@]12CC[C@H]3[C@@H](CC[C@H]4C[C@@](O)(CF)CC[C@@H]43)[C@@H]1CC[C@@H]2C(=O)Cn1cc2ccc(F)cc2n1     100 to 500%
3  C[C@@]1(O)CC[C@H]2[C@@H](CC[C@@H]3[C@@H]2CC[C@]2(C)[C@@H](C(=O)Cn4nc5ccncc5n4)CC[C@@H]32)C1          > 500%
4  CC[C@@]1(O)CC[C@H]2[C@@H](CC[C@@H]3[C@@H]2CC[C@]2(C)[C@@H](C(=O)Cn4nnc5ccccc54)CC[C@@H]32)C1      10 to 100%
5  C[C@]12CC[C@H]3[C@@H](CC[C@H]4C[C@@](O)(CF)CC[C@@H]43)[C@@H]1CC[C@@H]2C(=O)Cn1nc2ccncc2n1     100 to 500%

Query :: Quick one: activity at 10 µM for C[C@@]1(O)CC[C@H]2[C@H](CC[C@@H]3[C@@H]2CC[C@]2(C)[C@@H](C(=O)Cn4nc5cccc(F)c5n4)CC[C@@H]32)C1 ?
Result :: > 500%

Query :: Quick one: activity at 10 µM for COC[C@@]1(O)CC[C@H]2[C@@H](CC[C@@H]3[C@@H]2CC[C@]2(C)[C@@H](C(=O)Cn4ncc5ccncc54)CC[C@@H]32)C1 ?
Result :: 100 to 500%

* * *

Measured activity at 10 µM by item
SYSTEM UNDER TEST: α1β2γ2 GABAA receptor (Homo sapiens (Human), UniProt P14867+P47870)
RUN DESCRIPTION: Patch clamp electrophysiology of recombinant α1β2γ2 GABAA receptors in LTK cells
Assay type: cell-based
CONDITIONS: LTK, 10 μM compound, Qpatch, Ltk cells, GABA EC20 2 μM; read-out: α1β2γ2 GABA Qpatch in Ltk (Efficacy at 10 μm)

Take a look at these entries with their results.
> print(dat)
                              smiles.string  value.observed
1  COc1ccc2nn(CC(=O)[C@H]3CC[C@H]4[C@@H]5CC[C@@H]6C[C@](C)(O)CC[C@@H]6[C@H]5CC[C@]34C)nc2c1          > 500%
2  C[C@]12CC[C@H]3[C@@H](CC[C@H]4C[C@@](O)(CF)CC[C@@H]43)[C@@H]1CC[C@@H]2C(=O)Cn1cc2ccncc2n1          > 500%
3  CC[C@@]1(O)CC[C@H]2[C@@H](CC[C@@H]3[C@@H]2CC[C@]2(C)[C@@H](C(=O)Cn4nc5ccncc5n4)CC[C@@H]32)C1          > 500%
4  CC[C@@]1(O)CC[C@H]2[C@H](CC[C@@H]3[C@@H]2CC[C@]2(C)[C@@H](C(=O)Cn4nc5ccncc5n4)CC[C@@H]32)C1          > 500%
5  C[C@@]1(O)CC[C@H]2[C@H](CC[C@@H]3[C@@H]2CC[C@]2(C)[C@@H](C(=O)Cn4cc5cc(F)ccc5n4)CC[C@@H]32)C1          > 500%

Shift focus to the following entry.
Query :: Quick one: activity at 10 µM for C[C@]12CC[C@H]3[C@@H](CC[C@@H]4C[C@@](O)(CF)CC[C@@H]43)[C@@H]1CC[C@@H]2C(=O)Cn1cc2ncccc2n1 ?
Result :: 100 to 500%

* * *

SYSTEM UNDER TEST: α1β2γ2 GABAA receptor (Homo sapiens (Human), UniProt P14867+P47870)
RUN DESCRIPTION: Patch clamp electrophysiology of recombinant α1β2γ2 GABAA receptors in LTK cells
Format: cell-based
CONDITIONS: LTK, 10 μM compound, Qpatch, Ltk cells, GABA EC20 2 μM; read-out: α1β2γ2 GABA Qpatch in Ltk (Efficacy at 10 μm)
Measured activity at 10 µM by item

> print(dat)
                              smiles.string     assay.endpoint  value.observed
1  C[C@@]1(O)CC[C@H]2[C@H](CC[C@@H]3[C@@H]2CC[C@]2(C)[C@@H](C(=O)Cn4ncc5ccc(F)cc54)CC[C@@H]32)C1  activity at 10 µM          > 500%
2  C[C@@]1(O)CC[C@H]2[C@H](CC[C@@H]3[C@@H]2CC[C@]2(C)[C@@H](C(=O)Cn4nc5cccc(Cl)c5n4)CC[C@@H]32)C1  activity at 10 µM     100 to 500%
3  C[C@]12CC[C@H]3[C@@H](CC[C@@H]4C[C@@](O)(C(F)F)CC[C@@H]43)[C@@H]1CC[C@@H]2C(=O)Cn1cc2ncccc2n1  activity at 10 µM          > 500%
4  C[C@]12CC[C@H]3[C@@H](CC[C@H]4C[C@@](O)(CF)CC[C@@H]43)[C@@H]1CC[C@@H]2C(=O)Cn1nc2ccccc2n1  activity at 10 µM     100 to 500%
5  COC[C@@]1(O)CC[C@H]2[C@H](CC[C@@H]3[C@@H]2CC[C@]2(C)[C@@H](C(=O)Cn4nc5ccncc5n4)CC[C@@H]32)C1  activity at 10 µM          > 500%

Query :: Quick one: activity at 10 µM for C[C@@]1(O)CC[C@H]2[C@H](CC[C@@H]3[C@@H]2CC[C@]2(C)[C@@H](C(=O)Cn4ncc5cc(F)ccc54)CC[C@@H]32)C1 ?
Result :: 100 to 500%

Query :: Quick one: activity at 10 µM for C[C@]12CC[C@H]3[C@@H](CC[C@H]4C[C@@](O)(CF)CC[C@@H]43)[C@@H]1CC[C@@H]2C(=O)Cn1nnc2cnccc21 ?
Result :: 10 to 100%

Query :: Quick one: activity at 10 µM for Cc1cccc2c1nnn2CC(=O)[C@H]1CC[C@H]2[C@@H]3CC[C@@H]4C[C@](C)(O)CC[C@@H]4[C@H]3CC[C@]12C ?
Result :: > 500%

Query :: Quick one: activity at 10 µM for C[C@@]1(O)CC[C@H]2[C@H](CC[C@@H]3[C@@H]2CC[C@]2(C)[C@@H](C(=O)Cn4cc5cncnc5n4)CC[C@@H]32)C1 ?
Result :: 100 to 500%

Query :: Quick one: activity at 10 µM for C[C@@]1(O)CC[C@H]2[C@H](CC[C@@H]3[C@@H]2CC[C@]2(C)[C@@H](C(=O)Cn4cc5cc(C#N)ccc5n4)CC[C@@H]32)C1 ?
Result :: > 500%

* * *

SYSTEM UNDER TEST: α1β2γ2 GABAA receptor (Homo sapiens (Human), UniProt P14867+P47870)
RUN DESCRIPTION: Patch clamp electrophysiology of recombinant α1β2γ2 GABAA receptors in LTK cells
CONDITIONS: potentiation of GABA EC20 (2 μM) current; read-out: GABAa alpha1 (α1β2γ2)EC50
Measured EC50 by item

Query :: Please state recorded EC50 (tested on α1β2γ2 GABAA receptor (Homo sapiens (Human), UniProt P14867+P47870)) of C[C@@]1(O)CC[C@H]2[C@H](CC[C@@H]3[C@@H]2CC[C@]2(C)[C@@H](C(=O)Cn4nnc5ccccc54)CC[C@@H]32)C1
Result :: 0.5 to 1 µM

Query :: Please state recorded EC50 (tested on α1β2γ2 GABAA receptor (Homo sapiens (Human), UniProt P14867+P47870)) of C[C@@]1(O)CC[C@H]2[C@H](CC[C@@H]3[C@@H]2CC[C@]2(C)[C@@H](C(=O)Cn4cc5ccccc5n4)CC[C@@H]32)C1
Result :: > 2 µM

Query :: Please state recorded EC50 (tested on α1β2γ2 GABAA receptor (Homo sapiens (Human), UniProt P14867+P47870)) of C[C@@]1(O)CC[C@H]2[C@H](CC[C@@H]3[C@@H]2CC[C@]2(C)[C@@H](C(=O)Cn4ncc5ncccc54)CC[C@@H]32)C1
Result :: 1 to 2 µM
